test: antivirals protecting cells from dengue CPE – CPE readout, HTS (AID 540333); details: Dengue virus CPE inhibition in host cells, at 20 µM
About 320 (3.2%) of roughly 10,000 compounds were called active. Cut-off read from the data, not from the text of the source: active = CPE inhibition mostly above about 9.1% (no sharp cut-off); inactive = mostly below about 7.2%. This excerpt belongs to a sample that is enriched for actives.
Hello, when you answer, please use one of the following outcomes: true (1) for active, false (0) for inactive

Task item: Hello, I am checking results. What call was entered for O=C(Nc1cc(Cl)cc(Cl)c1)C(c1ccccc1)N1CCCCC1 (configuration not stated) ?
Reply: false (0)

Task item: Hello, I am checking results. What call was entered for "Cc1ccc(O)c(-c2cc(C(=O)Nc3ccc(S(=O)(=O)Nc4nc(C)cc(C)n4)cc3)[nH]n2)c1" ?
Reply: false (0)

Task item: Hello, I am checking results. What call was entered for "CCCS(=O)(=O)Nc1c(OC)ccc2c1c(C(=O)OCC)c(C)n2C" ?
Reply: false (0)

Task item: Hello, I am checking results. What call was entered for "Cc1ccccc1NC(=O)CSc1nc(N)c2c3c(sc2n1)CSC(C)(C)C3" ?
Reply: true (1)

Task item: Hello, I am checking results. What call was entered for "Cc1ccc(Cn2c(SCC(=O)N3CC(=O)Nc4ccccc43)nc3ccccc3c2=O)cc1" ?
Reply: true (1)

Task item: Hello, I am checking results. What call was entered for "Cc1ccc(-n2c(SCC(=O)N3CC(=O)Nc4ccccc43)nc3ccccc3c2=O)cc1" ?
Reply: false (0)

Task item: Hello, I am checking results. What call was entered for "O=C(COC(=O)/C=C/c1ccc(OC(F)F)cc1)NCc1cccs1" ?
Reply: false (0)

Reference for the values: PubChem BioAssay AID540333
